Tested on: Capan-2
Assay: Antiproliferative activity against human Capan2 cells assessed as inhibition of cell proliferation incubated for 72 hrs by CCK8 assay
Assay type: functional, cell-based
Settings: Capan-2, 72 h

COMPOUND	GI50
CC(C)(C)[C@@H]1C=C(C(=O)N[C@@H](Cc2ccccc2)C(N)=O)[C@H](c2ccc(Br)cc2)N1S(=O)(=O)c1ccccc1Cl	8.32 to 10.7 µM
Cc1ccccc1S(=O)(=O)N1[C@@H](c2ccc(Cl)cc2)C(C(=O)N[C@@H](Cc2ccccc2)C(N)=O)=C[C@H]1C(C)CC(C)(C)C (stereo partly drawn)	7.5 to 10.5 µM
Cc1ccccc1S(=O)(=O)N1[C@@H](c2ccc(Cl)c(Cl)c2)C(C(=O)N[C@@H](Cc2ccccc2)C(N)=O)=C[C@H]1C(C)(C)C	8.45 to 11.3 µM

* * *

Species on record: Rattus norvegicus
Assay: Inhibition of rat recombinant geranylgeranyltransferase type I expressed in Escherichia coli assessed as residual enzyme activity for geranylgeranylation of K-Ras4B at 50 uM incubated for 30 mins in presence of [3H]GGPP by scintillation counting assay relative to control
Collected Activity values appear next to each entry.
MEASURED_ATTRIBUTE: Activity (%)

CCCCS[C@@H]1C[C@@H](c2ccc(C)cc2)N(S(=O)(=O)c2ccccc2)C[C@H]1C(=O)O 72.6
CCCCCS[C@@H]1C[C@@H](c2ccc(OC)cc2)N(S(=O)(=O)c2ccccc2)C[C@H]1C(=O)O 94.8
COc1ccc([C@@H]2C[C@@H](Sc3ccc(C)cc3)[C@H](C(=O)O)CN2S(=O)(=O)c2ccccc2C)cc1 78.5

* * *

Species: Rattus norvegicus
Experiment: Inhibition of rat recombinant geranylgeranyltransferase type I expressed in Escherichia coli assessed as residual enzyme activity for geranylgeranylation of K-Ras4B at 50 uM incubated for 30 mins in presence of [3H]GGPP by scintillation counting assay relative to control
Activity below 70% gives f; Activity at or above it gives t.

COc1ccc([C@@H]2C[C@@H](SCc3ccc(C(C)(C)C)cc3)[C@H](C(=O)O)CN2S(=O)(=O)c2ccc(Cl)cc2)cc1 f
Cc1ccc(S(=O)(=O)N2[C@@H](c3ccc(Br)cc3)C(C(=O)O)=CC[C@H]2c2cccc(Br)c2)cc1 f
CC(=O)C1=CC[C@@H](c2cccs2)N(S(=O)(=O)c2ccc(C)cc2)C1 t
Cc1ccc([C@H]2C(C(=O)O)=CC[C@@H](c3ccc(C#N)cc3)N2S(=O)(=O)c2ccc(C)cc2)cc1 t
Cc1ccc(S(=O)(=O)N2C[C@@H](C(=O)O)[C@H](Sc3ccccc3)C[C@H]2c2ccc(Cl)cc2)cc1 f
Cc1ccc(S(=O)(=O)N2[C@@H](c3ccc(F)cc3)C(C(=O)O)=CC[C@H]2c2ccc(C(C)C)cc2)cc1 f
Cc1ccc([C@@H]2C[C@@H](SCc3ccccc3)[C@H](C(=O)O)CN2S(=O)(=O)c2ccccc2)cc1 f
Cc1ccccc1S(=O)(=O)N1C[C@@H](C(=O)O)[C@H](Sc2ccccc2)C[C@H]1c1ccc(Cl)cc1 t

* * *

Species: Rattus norvegicus
Test: Inhibition of rat recombinant geranylgeranyltransferase type I expressed in Escherichia coli assessed as residual enzyme activity for geranylgeranylation of K-Ras4B at 50 uM incubated for 30 mins in presence of [3H]GGPP by scintillation counting assay relative to control
Collected Activity values appear next to each entry.
MEASURED_ATTRIBUTE: Activity (%)

GIVEN_SMILES	REPORTED_RESULT
CC(=O)C1=CC[C@@H](c2cccc(Br)c2)N(S(=O)(=O)c2ccc(C)cc2)C1	105
CCS[C@@H]1C[C@@H](c2cccc(OC)c2)N(S(=O)(=O)c2ccc(C)cc2)C[C@H]1C(=O)O	84.8
Cc1ccc(S(=O)(=O)N2[C@@H](c3cccc(Cl)c3)C(C(=O)O)=CC[C@H]2c2ccc(C(C)C)cc2)cc1	63.1
Cc1ccc(S(=O)(=O)N2[C@@H](c3cccc(C)c3)C(C(=O)O)=CC[C@H]2c2ccccc2)cc1	64.9
Cc1ccc(S(=O)(=O)N2[C@@H](c3cccc(Cl)c3)C(C(=O)O)=CC[C@H]2c2ccc(Cl)cc2)cc1	59.2
CCS[C@@H]1C[C@@H](c2ccc(Cl)cc2)N(S(=O)(=O)c2ccccc2C)C[C@H]1C(=O)O	63.2
CC(=O)C1=CC[C@@H](c2ccc(Cl)cc2)N(S(=O)(=O)c2ccc(C)cc2)C1	80.8
Cc1ccc(S(=O)(=O)N2C[C@@H](C(=O)O)[C@H](SC3CCCC3)C[C@H]2c2cccc(Br)c2)cc1	72.1
COc1cccc([C@@H]2CC=C(C(=O)O)[C@H](c3ccc(Br)cc3)N2S(=O)(=O)c2ccc(C)cc2)c1	65.8
COc1cc([C@@H]2C[C@@H](Sc3ccc(Cl)cc3)[C@H](C(=O)O)CN2S(=O)(=O)c2ccc(C)cc2)cc(OC)c1OC	102
C=CCS[C@@H]1C[C@@H](c2cccc(Cl)c2)N(S(=O)(=O)c2ccc(C)cc2)C[C@H]1C(=O)O	46.3
COc1ccc([C@@H]2C[C@@H](Sc3ccc(Cl)cc3)[C@H](C(=O)O)CN2S(=O)(=O)c2ccccc2)cc1	88.8
CS(=O)(=O)N1[C@@H](c2ccc(Cl)cc2)C(C(=O)O)=CC[C@H]1c1ccc(Cl)cc1	55
Cc1ccc(S(=O)(=O)N2[C@@H](c3ccc(Cl)cc3)C(C(=O)O)=CC[C@H]2c2ccc(F)cc2)cc1	64.8
COc1ccc([C@@H]2CC=C(C(=O)O)[C@H](c3cccc(Br)c3)N2S(=O)(=O)c2ccc(C)cc2)cc1	84.5
Cc1cccc([C@H]2C(C(=O)O)=CC[C@@H](c3ccc(Cl)cc3)N2S(C)(=O)=O)c1	45.5
Cc1ccc([C@@H]2C[C@@H](SCCC(C)C)[C@H](C(=O)O)CN2S(=O)(=O)c2ccc(C)cc2)cc1	92.9
COc1ccc([C@@H]2CC=C(C(=O)O)[C@H](c3cccc(C)c3)N2S(=O)(=O)c2ccccc2C)cc1	61.3
Cc1ccc(S(=O)(=O)N2C[C@@H](C(=O)O)[C@H](SC3CCCC3)C[C@H]2c2ccccc2)cc1	93.6
COc1ccc([C@@H]2CC=C(C(=O)O)[C@H](c3cccc(Cl)c3)N2S(=O)(=O)c2ccccc2C)cc1	66.1
